- study-system: recombinant human S1P1 receptor (Homo sapiens)
- method-summary: GTPγS assay to determine EC50 values
- experimental-setup: 35S-GTPγS binding, membrane preparations of CHO cells expressing recombinant human S1P1 receptor
pEC50: −log10 of the molar value.
readout-name: pEC50

compound: Cc1cc(C)cc(NCC(=O)c2sc(C)c3c2C[C@@H]2[C@H]3C2(C)C)c1 [Example 157]
test-value: 8.05

compound: COc1cc(OC[C@@H](O)CO)ccc1CNC(=O)c1sc(C)c2c1C[C@@H]1[C@H]2C1(C)C [Example 7]
test-value: 6.74

compound: Cc1cc(CCC(=O)c2sc(C)c3c2C[C@@H]2[C@H]3C2(C)C)cc(Cl)c1OC[C@H](O)CO [Example 71]
test-value: 9.00

compound: Cc1sc(C(=O)CNc2ccc(CCO)cc2)c2c1[C@H]1[C@@H](C2)C1(C)C [Example 163]
test-value: 8.52

compound: COc1cc(OCCF)ccc1CNC(=O)c1sc(C)c2c1C[C@@H]1[C@H]2C1(C)C [Example 36]
test-value: 6.52

compound: Cc1cc(CNC(=O)c2sc(C)c3c2C[C@@H]2[C@H]3C2(C)C)cc(C)c1OC[C@@H](O)CO [Example 5]
test-value: 7.12

compound: CCc1sc(C(=O)CCc2cc(C)c(OC[C@@H](O)CO)c(C)c2)c2c1[C@@H]1[C@H](C2)C1(C)C [Example 137]
test-value: 9.22

compound: Cc1cc(CCC(=O)c2sc(C)c3c2C[C@@H]2[C@H]3C2(C)C)cc(Cl)c1OCC(C)O (stereo partly drawn) [Example 74]
test-value: 8.30

compound: Cc1sc(C(=O)CCc2ccc(OC[C@@H](O)CO)cc2Cl)c2c1[C@H]1[C@@H](C2)C1(C)C [Example 81]
test-value: 8.52

---

- study-system: recombinant human S1P1 receptor (Homo sapiens, UniProt P21453)
- Sequence (P21453 whole entry): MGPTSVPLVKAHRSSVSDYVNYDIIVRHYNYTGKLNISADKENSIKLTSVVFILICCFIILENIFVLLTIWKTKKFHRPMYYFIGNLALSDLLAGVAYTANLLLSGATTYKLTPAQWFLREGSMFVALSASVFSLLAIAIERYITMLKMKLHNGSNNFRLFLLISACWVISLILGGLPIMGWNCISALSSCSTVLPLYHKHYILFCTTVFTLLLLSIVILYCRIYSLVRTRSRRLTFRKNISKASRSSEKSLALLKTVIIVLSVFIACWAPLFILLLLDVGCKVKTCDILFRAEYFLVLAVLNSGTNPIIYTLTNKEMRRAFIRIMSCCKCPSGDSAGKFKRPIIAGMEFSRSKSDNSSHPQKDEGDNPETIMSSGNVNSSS
- method-summary: GTPγS assay to determine EC50 values
- experimental-setup: 35S-GTPγS binding, membrane preparations of CHO cells expressing recombinant human S1P1 receptor
pEC50: −log10 of the molar value.
Documented pEC50 across a set of molecules

molecule: COc1cc(OC[C@@H](O)CO)ccc1CCC(=O)c1sc(C)c2c1C[C@@H]1[C@H]2C1(C)C
pEC50: 8.70

molecule: COc1ccccc1CCC(=O)c1sc(C)c2c1C[C@@H]1[C@H]2C1(C)C
pEC50: 7.80

molecule: CCc1sc(C(=O)CCc2cc(C)c(OCCCO)c(C)c2)c2c1[C@@H]1[C@H](C2)C1(C)C
pEC50: 8.40

molecule: COc1cc(OCC(C)O)ccc1CNC(=O)c1sc(C)c2c1C[C@@H]1[C@H]2C1(C)C (mixture of isomers)
pEC50: 6.79

Ref: patent US7750040B2
